Please go through the items and note down their IC50.
Molecular target: CDK4/CycD1 (Homo sapiens)
Sequence (P11802 whole entry): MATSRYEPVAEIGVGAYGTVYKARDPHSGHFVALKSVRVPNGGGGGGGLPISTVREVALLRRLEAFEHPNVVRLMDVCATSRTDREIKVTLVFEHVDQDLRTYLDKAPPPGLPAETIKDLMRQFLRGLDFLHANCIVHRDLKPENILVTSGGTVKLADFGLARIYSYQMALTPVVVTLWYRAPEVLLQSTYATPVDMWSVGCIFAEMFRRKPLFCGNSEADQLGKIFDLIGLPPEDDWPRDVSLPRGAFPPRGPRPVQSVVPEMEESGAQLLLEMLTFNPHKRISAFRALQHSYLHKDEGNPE
Sequence (P24385 whole entry partner): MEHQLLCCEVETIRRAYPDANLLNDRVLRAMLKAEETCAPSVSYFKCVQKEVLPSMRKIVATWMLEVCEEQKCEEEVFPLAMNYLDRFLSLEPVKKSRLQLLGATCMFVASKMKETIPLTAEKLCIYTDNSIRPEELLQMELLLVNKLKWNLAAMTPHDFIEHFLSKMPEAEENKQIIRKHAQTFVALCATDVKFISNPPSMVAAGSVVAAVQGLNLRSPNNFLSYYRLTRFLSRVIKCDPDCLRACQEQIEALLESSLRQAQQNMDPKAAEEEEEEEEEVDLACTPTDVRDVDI
Assay: Kinase profiling
Details: 10 semi-logarithmic dilutions from 50 μM, singlicate
The figure you give is taken to be in nM; do not add the unit.

For the compound O=c1ccc2cnc(Nc3ccc(N4CCC(CCCO)CC4)cc3F)nc2n1[C@@H]1CC2CCC1C2 (stereo partly drawn) , what IC50 is on record?
1270

Also CC(=O)c1c(C)c2cnc(Nc3ccc(N4CCNCC4)cc3)nc2n([C@@H]2CC3CCC2C3)c1=O (stereo partly drawn) , if possible.
3.15

Now the compound CC(O)COC1CCN(c2ccc(Nc3ncc4ccc(=O)n([C@@H]5CC6CCC5C6)c4n3)cc2)CC1 (stereo partly drawn)
18.9
